- System: Amaranthus
- assay: Pre-emergence herbicidal action, Amaranthus
- Format: in vivo
- Design: key: 1=total damage; 9=no action
- condition_context: 1000 g a.i./ha, 4 weeks, scale of nine ratings (1=total damage, 9=no action)
Quick reference for Amaranthus, herbicidal action rating among some molecules
The answer should be written as a number, with no unit following it.

N#CCc1cccc(C#CCOc2ccc(Br)cn2)c1 ... 1
COc1cc(Cl)cnc1OCC#Cc1ccccc1 ... 3
COc1cc(C)cnc1OCC#Cc1cccc(CC#N)c1 ... 1
N#CCc1cccc(C#CCOc2ccc(Cl)cn2)c1 ... 1
COc1cc(F)cnc1OCC#Cc1cccc(CC#N)c1 ... 1

Give the reported value of Amaranthus, herbicidal action rating for this record: `N#CCc1cccc(C#CCOc2ncc(F)cc2F)c1`
2
